Below: molecules with Ki recorded for Histamine H1 receptor (Homo sapiens, UniProt P35367) in separate published works.

[
  {
    "Molecule": "C[C@@H](c1ccccn1)c1c(CCN2CCC2)sc2ccccc12",
    "System Name": "Histamine H1 receptor (Homo sapiens, UniProt P35367)",
    "Ki": "≤ 1000 nM"
  },
  {
    "Molecule": "Nc1nc2c(c(N3CCN(CCO[C@@H]4C[C@@H]5[C@H](C4)[C@@H]5C(=O)O)CC3)n1)CCc1cc(OCc3ccc(OC(F)(F)F)cc3)ccc1-2",
    "System Name": "Histamine H1 receptor (Homo sapiens, UniProt P35367)",
    "Ki": "< 100 nM"
  },
  {
    "Molecule": "COC(=O)c1cc(COCCN2CCN(c3nc(N)nc4c3CCc3cc(OCc5ccc(Cl)cc5)ccc3-4)CC2)ccc1F",
    "System Name": "Histamine H1 receptor (Homo sapiens, UniProt P35367)",
    "Ki": "< 100 nM"
  },
  {
    "Molecule": "CN(C)[C@@H]1CCN(c2nc(N)nc3c2CCc2cc(OCc4ccccc4)ccc2-3)C1",
    "System Name": "Histamine H1 receptor (Homo sapiens, UniProt P35367)",
    "Ki": "100 to 500 nM"
  },
  {
    "Molecule": "Nc1nc2c(c(N3CCN(CCOCCOCCN4C(=O)c5ccccc5C4=O)CC3)n1)CCc1cc(OCc3ccc(Cl)cc3)ccc1-2",
    "System Name": "Histamine H1 receptor (Homo sapiens, UniProt P35367)",
    "Ki": "< 100 nM"
  },
  {
    "Molecule": "Nc1nc2c(c(N3CCN(CCOC4CCC(C(=O)O)OC4)CC3)n1)CCc1cc(OCc3ccc(OC(F)(F)F)cc3)ccc1-2 (stereo not shown)",
    "System Name": "Histamine H1 receptor (Homo sapiens, UniProt P35367)",
    "Ki": "< 100 nM"
  },
  {
    "Molecule": "CC(C1=NCCO1)C1=C(CCN(C)C)Cc2ccccc21 (stereo not shown)",
    "System Name": "Histamine H1 receptor (Homo sapiens, UniProt P35367)",
    "Ki": "≤ 250 nM"
  },
  {
    "Molecule": "CN(C)CCc1sc2ccccc2c1Cc1ccccn1",
    "System Name": "Histamine H1 receptor (Homo sapiens, UniProt P35367)",
    "Ki": "≤ 1000 nM"
  },
  {
    "Molecule": "CNCCC1=C([C@@H](C)c2cnccn2)c2ccccc2C1",
    "System Name": "Histamine H1 receptor (Homo sapiens, UniProt P35367)",
    "Ki": "≤ 250 nM"
  },
  {
    "Molecule": "CC(CC1=C(Cc2cnccn2)c2ccccc2C1)N(C)C (stereo not shown)",
    "System Name": "Histamine H1 receptor (Homo sapiens, UniProt P35367)",
    "Ki": "≤ 250 nM"
  },
  {
    "Molecule": "COC(=O)c1ccc(OCCN2CCN(c3nc(N)nc4c3CCc3cc(OCc5ccc(Cl)cc5)ccc3-4)CC2)cc1",
    "System Name": "Histamine H1 receptor (Homo sapiens, UniProt P35367)",
    "Ki": "100 to 500 nM"
  },
  {
    "Molecule": "Nc1nc2c(c(N3CCN(CCO[C@H]4C[C@@H]5[C@H](C4)[C@@]5(F)C(=O)O)CC3)n1)CCc1cc(OCc3ccc(OC(F)(F)F)cc3)ccc1-2",
    "System Name": "Histamine H1 receptor (Homo sapiens, UniProt P35367)",
    "Ki": "< 100 nM"
  },
  {
    "Molecule": "Fc1ccc2c(c1)C(N1CCNCC1)=Nc1ccccc1S2",
    "System Name": "Histamine H1 receptor (Homo sapiens, UniProt P35367)",
    "Ki": "~7.1 nM"
  },
  {
    "Molecule": "CCN(C)CCC1=C(Cc2cnccn2)c2ccccc2C1",
    "System Name": "Histamine H1 receptor (Homo sapiens, UniProt P35367)",
    "Ki": "≤ 250 nM"
  },
  {
    "Molecule": "Nc1nc2c(c(N3CCN(CCOC4CC5C(C4)C5C(=O)O)CC3)n1)CCc1cc(OCc3ccc(OC(F)(F)F)cc3)ccc1-2 (mixture of isomers)",
    "System Name": "Histamine H1 receptor (Homo sapiens, UniProt P35367)",
    "Ki": "< 100 nM"
  },
  {
    "Molecule": "CN(C)CCc1sc2ccccc2c1C(C)(O)c1ccccn1 (stereo not shown)",
    "System Name": "Histamine H1 receptor (Homo sapiens, UniProt P35367)",
    "Ki": "≤ 1000 nM"
  }
]

* * *

pKi: −log10 of the molar value.
Below: molecules with pKi recorded for Histamine H1 receptor (Homo sapiens) in separate published works.
Readout: pKi

[
  {
    "Molecule": "COc1ccc2c(c1)CC(CCN1CCC1)=C2[C@@H](C)c1cnccn1",
    "Reading": "≥ 6.60"
  },
  {
    "Molecule": "Nc1nc2c(c(N3CCN(CCOCc4cc(C(=O)O)ccc4F)CC3)n1)CCc1cc(OCc3ccc(Cl)cc3)ccc1-2",
    "Reading": "> 7.00"
  },
  {
    "Molecule": "Cc1ccc(CNc2nc(N3CCN(C)CC3)nc3cnc(Cl)cc23)s1",
    "Reading": "> 6.00"
  },
  {
    "Molecule": "Cc1nc(N(C)c2ccc(OCCF)cc2)c2c(C)coc2n1",
    "Reading": 5.47
  },
  {
    "Molecule": "COC(=O)c1cccc(COCCN2CCN(c3nc(N)nc4c3CCc3cc(OCc5ccc(Cl)cc5)ccc3-4)CC2)n1",
    "Reading": "> 7.00"
  },
  {
    "Molecule": "CC(C)(C(=O)O)[C@H]1C[C@H](OCCN2CCN(c3nc(N)nc4c3CCc3cc(OCc5ccc(Cl)cc5)ccc3-4)CC2)C1",
    "Reading": "> 7.00"
  },
  {
    "Molecule": "Cc1ccc2c(c1)CC(CCN(C)C)=C2Cc1cccnn1",
    "Reading": "≥ 6.60"
  },
  {
    "Molecule": "Cc1nnc(C(C)C2=C(CCN(C)C)Cc3ccccc32)s1 (centres unmarked)",
    "Reading": "≥ 6.60"
  },
  {
    "Molecule": "CC1(C(=O)O)CC(OCCN2CCN(c3nc(N)nc4c3CCc3cc(OCc5ccc(OC(F)(F)F)cc5)ccc3-4)CC2)C1 (centres unmarked)",
    "Reading": "> 7.00"
  },
  {
    "Molecule": "Nc1nc2c(c(N3CCN(CCO)CC3)n1)CCc1cc(OCc3ccccc3)ccc1-2",
    "Reading": "> 7.00"
  },
  {
    "Molecule": "C[C@@H](c1cscn1)c1c(CCN(C)C)sc2ccccc12",
    "Reading": "≥ 6.00"
  },
  {
    "Molecule": "CCS(=O)(=O)CCCN1CCN(c2nc(N)nc3c2CCc2cc(OCc4ccc(Cl)cc4)ccc2-3)CC1",
    "Reading": "> 7.00"
  },
  {
    "Molecule": "C[C@@H](c1cncs1)c1c(CCN(C)C)sc2ccccc12",
    "Reading": "≥ 6.00"
  },
  {
    "Molecule": "CC(c1cscn1)c1c(CCN(C)C)sc2ccccc12 (stereo in doubt)",
    "Reading": "≥ 6.00"
  },
  {
    "Molecule": "Nc1nc2c(c(N3CCN(CCOCc4ccc(C(=O)O)s4)CC3)n1)CCc1cc(OCc3ccc(OC(F)(F)F)cc3)ccc1-2",
    "Reading": "> 7.00"
  },
  {
    "Molecule": "O[C@@H]1CCN(CCC2=C(Cc3cccnn3)c3ccc(F)cc3C2)C1",
    "Reading": "≥ 6.60"
  },
  {
    "Molecule": "Nc1nc2c(c(N3CCN(CCCOc4cccc(C(=O)O)c4)CC3)n1)CCc1cc(OCc3ccc(Cl)cc3)ccc1-2",
    "Reading": "> 7.00"
  }
]

* * *

Below: molecules with Ki recorded for Histamine H1 receptor (Homo sapiens) in separate published works.

[
  {
    "Molecule": "Nc1nc2c(c(N3CCN(CCOC[C@H]4CC[C@@H](C(=O)O)CC4)CC3)n1)CCc1cc(OCc3ccc(Cl)cc3)ccc1-2",
    "System Name": "Histamine H1 receptor (Homo sapiens)",
    "Qual": "<",
    "Ki, nM": 100
  },
  {
    "Molecule": "CNCC(C)CN1c2ccccc2Sc2ccc(OC)cc21 (stereo not shown)",
    "System Name": "Histamine H1 receptor (Homo sapiens)",
    "Qual": "=",
    "Ki, nM": 2.1
  },
  {
    "Molecule": "O=C(NCCCCC(c1ccc(F)cc1)c1ccc(F)cc1)Nc1ccc(Cl)cc1",
    "System Name": "Histamine H1 receptor (Homo sapiens)",
    "Qual": "=",
    "Ki, nM": 32
  },
  {
    "Molecule": "CN(C)CCc1sc2ccccc2c1Cc1cnns1",
    "System Name": "Histamine H1 receptor (Homo sapiens)",
    "Qual": "≤",
    "Ki, nM": 1000
  },
  {
    "Molecule": "CN1CCN(c2nc(NCCS(=O)(=O)Nc3ccccc3Cl)c3cc(Cl)ncc3n2)CC1",
    "System Name": "Histamine H1 receptor (Homo sapiens)",
    "Qual": "<",
    "Ki, nM": 1000
  },
  {
    "Molecule": "CN(C)CCc1sc2ccccc2c1Cc1cscn1",
    "System Name": "Histamine H1 receptor (Homo sapiens)",
    "Qual": "≤",
    "Ki, nM": 1000
  },
  {
    "Molecule": "CN1CCN(c2ccc3c(c2)CN(S(=O)(=O)c2cc(Cl)cc(Cl)c2)C3)CC1",
    "System Name": "Histamine H1 receptor (Homo sapiens)",
    "Qual": "=",
    "Ki, nM": 487
  }
]
